Sourced from the OligoGym collection

# test_system: UFC1
# run_description: reporter assay of Huesken 2005
# experimental_conditions: siRNA
Oligonucleotides are written 5' to 3', each unit as a sugar letter and its base; * is a phosphorothioate linkage, no mark a phosphodiester; rarer units and linkages stand in square brackets, end groups in braces. Plain capitals give the bases only. d = 2'-deoxy (DNA); r = 2'-OH (RNA)
We'd kindly ask you to apply these normalised inhibition (eCFP-eYFP dual reporter) classes: interval 1: < 60%; interval 2: ≥ 60% and < 90%; interval 3: ≥ 90%

substance="sense rArUrGrGrArArArGrArCrArGrCrArArArGrArUdTdT / antisense rArUrCrUrUrUrGrCrUrGrUrCrUrUrUrCrCrArUdCdC" assigned_class="interval 2"
substance="sense rUrGrGrGrUrCrCrArUrGrGrCrUrGrGrCrArGrUdTdT / antisense rArCrUrGrCrCrArGrCrCrArUrGrGrArCrCrCrAdGdC" assigned_class="interval 1"
substance="sense rGrUrGrGrArGrArArCrArArCrArArGrArArUrGdTdT / antisense rCrArUrUrCrUrUrGrUrUrGrUrUrCrUrCrCrArCdAdT" assigned_class="interval 2"

Class (by measured normalised inhibition (eCFP-eYFP dual reporter)) for sense rArGrGrGrCrGrUrCrArUrCrCrArArCrArCrArAdTdT / antisense rUrUrGrUrGrUrUrGrGrArUrGrArCrGrCrCrCrUdTdC
interval 3

Repeat with sense rGrCrUrGrGrCrArGrUrGrGrArArArUrCrCrCrUdTdT / antisense rArGrGrGrArUrUrUrCrCrArCrUrGrCrCrArGrCdCdA
interval 1

Repeat with sense rGrArCrGrGrArUrCrArUrUrUrCrArArArCrCrUdTdT / antisense rArGrGrUrUrUrGrArArArUrGrArUrCrCrGrUrCdAdG
interval 3

Repeat with sense rGrGrGrUrGrCrArGrCrGrArCrUrGrArArGrGrAdTdT / antisense rUrCrCrUrUrCrArGrUrCrGrCrUrGrCrArCrCrCdAdC
interval 2

Repeat with sense rArArGrGrArArCrUrCrGrGrUrGrGrUrUrUrGrGdTdT / antisense rCrCrArArArCrCrArCrCrGrArGrUrUrCrCrUrUdCdC
interval 1

Repeat with sense rGrGrCrArArArArUrArUrGrCrCrUrGrArCrGrGdTdT / antisense rCrCrGrUrCrArGrGrCrArUrArUrUrUrUrGrCrCdAdC
interval 3

* * *

# test_system: UBE2S
# run_description: reporter assay of Huesken 2005
# experimental_conditions: siRNA
Oligonucleotides are written 5' to 3', each unit as a sugar letter and its base; * is a phosphorothioate linkage, no mark a phosphodiester; rarer units and linkages stand in square brackets, end groups in braces. Plain capitals give the bases only. d = 2'-deoxy (DNA); r = 2'-OH (RNA)
readout_type: normalised inhibition (eCFP-eYFP dual reporter) (%)
The reply should contain only the number, in %.

substance="sense rArGrGrGrGrArCrCrCrCrArUrArUrGrCrUrGrGdTdT / antisense rCrCrArGrCrArUrArUrGrGrGrGrUrCrCrCrCrUdCdA" test_value=36.5
substance="sense rGrCrCrArGrUrGrGrCrArCrUrGrArArGrCrUrUdTdT / antisense rArArGrCrUrUrCrArGrUrGrCrCrArCrUrGrGrCdCdA" test_value=57.9
substance="sense rArArGrArUrCrUrUrCrCrArCrCrCrGrArArCrGdTdT / antisense rCrGrUrUrCrGrGrGrUrGrGrArArGrArUrCrUrUdGdG" test_value=60.4
substance="sense rUrGrGrArGrGrUrCrUrGrUrUrCrCrGrCrArUrGdTdT / antisense rCrArUrGrCrGrGrArArCrArGrArCrCrUrCrCrAdGdC" test_value=58.5
substance="sense rUrGrArArArCrUrCrCrUrGrCrUrGrGrGrGrArAdTdT / antisense rUrUrCrCrCrCrArGrCrArGrGrArGrUrUrUrCrAdTdG" test_value=54
substance="sense rGrUrCrArCrCrArUrCrGrArGrGrGrCrCrCrUrGdTdT / antisense rCrArGrGrGrCrCrCrUrCrGrArUrGrGrUrGrArCdCdT" test_value=45.1
substance="sense rCrUrGrGrCrGrArGrCrGrCrGrArUrArArGrArAdTdT / antisense rUrUrCrUrUrArUrCrGrCrGrCrUrCrGrCrCrArGdCdA" test_value=82.4
substance="sense rUrGrCrGrUrCrArArCrGrUrGrCrUrCrArArGrAdTdT / antisense rUrCrUrUrGrArGrCrArCrGrUrUrGrArCrGrCrAdGdA" test_value=74.5
substance="sense rArGrCrCrGrGrUrCrGrGrGrCrCrCrUrGrGrCrCdTdT / antisense rGrGrCrCrArGrGrGrCrCrCrGrArCrCrGrGrCrUdTdC" test_value=43
substance="sense rGrCrUrGrGrGrGrArArGrGrArCrUrUrCrCrCrUdTdT / antisense rArGrGrGrArArGrUrCrCrUrUrCrCrCrCrArGrCdAdG" test_value=53.9

Reported normalised inhibition (eCFP-eYFP dual reporter) for sense rCrCrUrGrCrUrCrUrUrGrGrArGrArArCrUrArCdTdT / antisense rGrUrArGrUrUrCrUrCrCrArArGrArGrCrArGrGdCdG : what is it?
70.7

Repeat with sense rGrGrCrCrGrCrCrUrGrCrUrCrUrUrGrGrArGrAdTdT / antisense rUrCrUrCrCrArArGrArGrCrArGrGrCrGrGrCrCdCdG
69.4

* * *

# test_system: Mmp7 (rat)
# run_description: reporter assay of Huesken 2005
# experimental_conditions: siRNA
Oligonucleotides are given in HELM: sugar(base)linkage, 5' to 3'; d 2'-deoxyribose, r ribose, m 2'-O-methylribose, p phosphate. ss, as = sense and antisense strand
Label n if normalised inhibition (eCFP-eYFP dual reporter) falls below 90%; label y in every other case.

substance=RNA1{r(U)p.r(A)p.r(G)p.r(G)p.r(A)p.r(A)p.r(A)p.r(U)p.r(U)p.r(U)p.r(U)p.r(A)p.r(C)p.r(C)p.r(U)p.r(U)p.r(C)p.r(A)p.r(C)p.d(T)p.d(T)}|RNA2{r(G)p.r(U)p.r(G)p.r(A)p.r(A)p.r(G)p.r(G)p.r(U)p.r(A)p.r(A)p.r(A)p.r(A)p.r(U)p.r(U)p.r(U)p.r(C)p.r(C)p.r(U)p.r(A)p.d(A)p.d(G)}$$$RNA1{StrandType:ss}|RNA2{StrandType:as}$ assigned_class=n

API: above_or_equal(metric=normalised inhibition (eCFP-eYFP dual reporter), cutoff=90%) for item RNA1{r(G)p.r(A)p.r(G)p.r(U)p.r(G)p.r(C)p.r(C)p.r(A)p.r(G)p.r(A)p.r(U)p.r(G)p.r(U)p.r(U)p.r(G)p.r(C)p.r(A)p.r(G)p.r(A)p.d(T)p.d(T)}|RNA2{r(U)p.r(C)p.r(U)p.r(G)p.r(C)p.r(A)p.r(A)p.r(C)p.r(A)p.r(U)p.r(C)p.r(U)p.r(G)p.r(G)p.r(C)p.r(A)p.r(C)p.r(U)p.r(C)p.d(C)p.d(A)}$$$RNA1{StrandType:ss}|RNA2{StrandType:as}$
y

Repeat with RNA1{r(A)p.r(G)p.r(A)p.r(A)p.r(G)p.r(U)p.r(G)p.r(A)p.r(C)p.r(C)p.r(G)p.r(C)p.r(A)p.r(C)p.r(U)p.r(U)p.r(C)p.r(A)p.r(G)p.d(T)p.d(T)}|RNA2{r(C)p.r(U)p.r(G)p.r(A)p.r(A)p.r(G)p.r(U)p.r(G)p.r(C)p.r(G)p.r(G)p.r(U)p.r(C)p.r(A)p.r(C)p.r(U)p.r(U)p.r(C)p.r(U)p.d(C)p.d(C)}$$$RNA1{StrandType:ss}|RNA2{StrandType:as}$
n

Repeat with RNA1{r(C)p.r(C)p.r(A)p.r(G)p.r(G)p.r(U)p.r(G)p.r(U)p.r(G)p.r(G)p.r(A)p.r(G)p.r(U)p.r(G)p.r(C)p.r(C)p.r(A)p.r(G)p.r(A)p.d(T)p.d(T)}|RNA2{r(U)p.r(C)p.r(U)p.r(G)p.r(G)p.r(C)p.r(A)p.r(C)p.r(U)p.r(C)p.r(C)p.r(A)p.r(C)p.r(A)p.r(C)p.r(C)p.r(U)p.r(G)p.r(G)p.d(G)p.d(C)}$$$RNA1{StrandType:ss}|RNA2{StrandType:as}$
n

Repeat with RNA1{r(G)p.r(C)p.r(C)p.r(A)p.r(C)p.r(U)p.r(C)p.r(A)p.r(U)p.r(G)p.r(A)p.r(A)p.r(C)p.r(U)p.r(U)p.r(G)p.r(G)p.r(C)p.r(C)p.d(T)p.d(T)}|RNA2{r(G)p.r(G)p.r(C)p.r(C)p.r(A)p.r(A)p.r(G)p.r(U)p.r(U)p.r(C)p.r(A)p.r(U)p.r(G)p.r(A)p.r(G)p.r(U)p.r(G)p.r(G)p.r(C)p.d(A)p.d(A)}$$$RNA1{StrandType:ss}|RNA2{StrandType:as}$
n
